Every entry's value here was drawn from patent US6737383B1.

Tested on: morningglory
procedure text: Test B pre/postemergence morningglory
Format: in vivo, Ipomoea hederacea
protocol conditions: Postemergence, Rate 250 g/ha; scale of 0 to 10, 0 is no effect, 10 is complete control
property name: Morningglory plant response rating

For orientation, consider the following solved cases.
molecule: CC(=O)NCn1c(=O)on(C(=O)N(c2ccccc2)C(C)C)c1=O [Compound 621]
result: 2

molecule: C=C(Cn1c(=O)on(C(=O)N(c2ccccc2)C(C)C)c1=O)C(C)(C)C [Compound 648]
result: 10

molecule: CC(C)N(C(=O)n1oc(=O)n(CC(=O)C2CCC2)c1=O)c1ccc(Cl)cc1 [Compound 643]
result: 4

molecule: CC[C@@H](C)n1c(=O)on(C(=O)N(c2ccc(F)cc2F)C(C)C)c1=O [Compound 667]
result: 4

Kindly consider the entry below.
query: Please list Morningglory plant response rating recorded for the molecule CC(C)N(C(=O)n1oc(=O)n(CNC(=O)c2ccccc2)c1=O)c1ccc(F)cc1F [Compound 619]
result: 1
